Listed compounds paired with reported log10 solubility
test: Solubility; assay type: physicochemical
Please keep in mind that the values are log10 of solubility expressed in µM.

Would you please look over these solved cases?
line notation: O=[N+]([O-])c1ccc(S(=O)(=O)N2CCN(c3cccc(Cl)c3)CC2)cc1
log10 solubility: 0.81
//
line notation: O=[N+]([O-])c1ccc(S(=O)(=O)N2CCN(c3ccc(F)cc3)CC2)cc1
log10 solubility: 1.42
//
line notation: O=[N+]([O-])c1ccc(S(=O)(=O)N2CCN(C/C=C/c3ccccc3)CC2)cc1
log10 solubility: 1.31

# input Param item = CCN(CC)S(=O)(=O)c1ccc([N+](=O)[O-])cc1 ; retrieve measured log10 solubility.
# output 2.71

# input Now the compound O=[N+]([O-])c1ccc(S(=O)(=O)N2CCN(c3ccccc3)CC2)cc1
# output 1.82

This collection of values is drawn from patent US9840483B2.
